So I've got a bunch of binders here, and I need their SPOT signal as a fraction of Bim BH3's signal on the same receptor and array values.
STUDY_TARGET: Bcl-xL, Q07817
Sequence (Q07817 1-209): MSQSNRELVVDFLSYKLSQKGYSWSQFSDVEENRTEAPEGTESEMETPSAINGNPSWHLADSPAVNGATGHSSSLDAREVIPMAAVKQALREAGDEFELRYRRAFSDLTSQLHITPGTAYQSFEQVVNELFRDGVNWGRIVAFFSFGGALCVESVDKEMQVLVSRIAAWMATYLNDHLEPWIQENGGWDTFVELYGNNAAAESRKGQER
ASSAY: peptide SPOT array, c-Myc-tagged receptor at 1 uM or 100 nM, anti-c-Myc-Cy3
// no unit string in output, number only

Entry KFMKTIPGTALVEMGDEYAVERAVTH [HNRPLL] has what SPOT signal as a fraction of Bim BH3's signal on the same receptor and array?
0.04

Entry PALLVHWAKCLQKMGRGLNSSYDQQE [RGPD2] has what SPOT signal as a fraction of Bim BH3's signal on the same receptor and array?
0.89

Entry CILNSFYGYVMRKGARWYSMEMAGIV [POLE] has what SPOT signal as a fraction of Bim BH3's signal on the same receptor and array?
0.18

Entry WLKGDILGEKLVNLLDCLCNEDLESR has what SPOT signal as a fraction of Bim BH3's signal on the same receptor and array?
0.07

Entry SEIMHSFAKCIEVMGDGCLNNEHFEE [IPO5] has what SPOT signal as a fraction of Bim BH3's signal on the same receptor and array?
0.09

Entry WLKGDILGEKDVNLADCLCNEDLESR has what SPOT signal as a fraction of Bim BH3's signal on the same receptor and array?
0.07

Entry VPFATELHERLAKDSEKLKEEIGKEL [APOA4] has what SPOT signal as a fraction of Bim BH3's signal on the same receptor and array?
0.02

These data points were gathered from paper PMC4072508.
